assay: Partition coefficient, log P of the compound by shake flask method; assay type: physicochemical; conditions: octanol/water
Reported endpoint: logP

[11CH3]n1c(SCC(=O)N2CCC[C@H]2C(=O)Nc2ccccc2-c2ccccc2)nc2ccccc21 : 3.4
[11CH3]n1c(CCC(=O)N2CCC[C@H]2C(=O)Nc2ccccc2-c2ccccc2)nc2ccccc21 : 2.8
